# System: Mycobacterium tuberculosis Erdman (autoluminescent)
# measurement-description: total FIC50 (Loewe) at 50% inhibition, three-drug combination (log2); higher = more antagonistic
# assay-context: in vitro model: dormancy (butyrate + nitrate, low O2); time point: constant (~7 days, model-specific)
Returns one of True or False; True when total FIC50 is >= 0.2.

molecule	label-value
COc1c(N2C[C@@H]3CCCN[C@@H]3C2)c(F)cc2c(=O)c(C(=O)O)cn(C3CC3)c12 [moxifloxacin] + O=[N+]([O-])c1cn2c(n1)OC[C@@H](OCc1ccc(OC(F)(F)F)cc1)C2 [pretomanid] + CO[C@H]1/C=C/O[C@@]2(C)Oc3c(C)c(O)c4c(O)c(c(/C=N/N5CCN(C6CCCC6)CC5)c(O)c4c3C2=O)NC(=O)/C(C)=C\C=C\[C@H](C)[C@H](O)[C@@H](C)[C@@H](O)[C@@H](C)[C@H](OC(C)=O)[C@@H]1C [rifapentine]	True
CC[C@@H](CO)NCCN[C@@H](CC)CO [ethambutol] + COc1c(N2C[C@@H]3CCCN[C@@H]3C2)c(F)cc2c(=O)c(C(=O)O)cn(C3CC3)c12 [moxifloxacin] + CO[C@H]1/C=C/O[C@@]2(C)Oc3c(C)c(O)c4c(O)c(c(/C=N/N5CCN(C6CCCC6)CC5)c(O)c4c3C2=O)NC(=O)/C(C)=C\C=C\[C@H](C)[C@H](O)[C@@H](C)[C@@H](O)[C@@H](C)[C@H](OC(C)=O)[C@@H]1C [rifapentine]	False
COc1nc2ccc(Br)cc2cc1[C@@H](c1ccccc1)[C@@](O)(CCN(C)C)c1cccc2ccccc12 [bedaquiline] + CC(=O)NC[C@H]1CN(c2ccc(N3CCOCC3)c(F)c2)C(=O)O1 [linezolid] + CO[C@H]1/C=C/O[C@@]2(C)Oc3c(C)c(O)c4c(O)c(c(/C=N/N5CCN(C)CC5)c(O)c4c3C2=O)NC(=O)/C(C)=C\C=C\[C@H](C)[C@H](O)[C@@H](C)[C@@H](O)[C@@H](C)[C@H](OC(C)=O)[C@@H]1C [rifampicin]	True
COc1nc2ccc(Br)cc2cc1[C@@H](c1ccccc1)[C@@](O)(CCN(C)C)c1cccc2ccccc12 [bedaquiline] + CC(C)/N=c1\cc2n(-c3ccc(Cl)cc3)c3ccccc3nc-2cc1Nc1ccc(Cl)cc1 [clofazimine] + NNC(=O)c1ccncc1 [isoniazid]	False
CC(C)/N=c1\cc2n(-c3ccc(Cl)cc3)c3ccccc3nc-2cc1Nc1ccc(Cl)cc1 [clofazimine] + CC[C@@H](CO)NCCN[C@@H](CC)CO [ethambutol] + O=[N+]([O-])c1cn2c(n1)OC[C@@H](OCc1ccc(OC(F)(F)F)cc1)C2 [pretomanid]	False

###

# System: Mycobacterium tuberculosis Erdman (autoluminescent)
# measurement-description: AUC25, normalised area under dose response up to IC25 (three-drug combination) (fraction (0-1)); higher = more potent at low dose
# assay-context: in vitro model: cholesterol-high 0.2 mM; time point: terminal (~4-5 doublings, model-specific)
reported-property: AUC25

compound	observed-measurement
NNC(=O)c1ccncc1 [isoniazid] + CO[C@H]1/C=C/O[C@@]2(C)Oc3c(C)c(O)c4c(O)c(c(/C=N/N5CCN(C6CCCC6)CC5)c(O)c4c3C2=O)NC(=O)/C(C)=C\C=C\[C@H](C)[C@H](O)[C@@H](C)[C@@H](O)[C@@H](C)[C@H](OC(C)=O)[C@@H]1C [rifapentine] + CO[C@H]1/C=C/O[C@@]2(C)Oc3c(C)c(O)c4c(O)c(c(/C=N/N5CCN(C)CC5)c(O)c4c3C2=O)NC(=O)/C(C)=C\C=C\[C@H](C)[C@H](O)[C@@H](C)[C@@H](O)[C@@H](C)[C@H](OC(C)=O)[C@@H]1C [rifampicin]	0.055
CC(C)/N=c1\cc2n(-c3ccc(Cl)cc3)c3ccccc3nc-2cc1Nc1ccc(Cl)cc1 [clofazimine] + CC[C@@H](CO)NCCN[C@@H](CC)CO [ethambutol] + CO[C@H]1/C=C/O[C@@]2(C)Oc3c(C)c(O)c4c(O)c(c(/C=N/N5CCN(C)CC5)c(O)c4c3C2=O)NC(=O)/C(C)=C\C=C\[C@H](C)[C@H](O)[C@@H](C)[C@@H](O)[C@@H](C)[C@H](OC(C)=O)[C@@H]1C [rifampicin]	0.0801
